Each recorded value in this set is attributed to paper PMC9785194.

Provide the recorded Ki for the entries that follow.
Biological target: α-glucosidase
Assay: enzyme kinetics of α-glucosidase inhibition (Lineweaver-Burk and secondary plots)
Conditions: secondary plots; free enzyme; read-out: Ki (the inhibition constant of the free enzyme)

INSERT INTO results (molecule, property_name, measured_result) VALUES
  ('CC12CC(O)C(O)C=C1c1cc(O)cc(O)c1C(=O)O2 (centres unmarked) [Compound 3, Alternolide C]', 'Ki', '108 µM');

Give recorded Ki. CC12CC(O)C(O)C=C1c1cc(O)cc(O)c1C(=O)O2 (centres unmarked) [Compound 2, Alternolide B]
347 µM
